The measured values listed here are drawn from patent US9650361B2.

Test system: B16F10 cells
assayComment: Proliferation assay, B16F10 (Method 3)
Type: cell-based, mouse
measurementContext: Mus musculus, B16-F10, 96 h, 4 days, crystal violet; read-out: Inhibition of B16F10 cell proliferation IC50
Task for the reader: assign each of the following compounds its reported pIC50.
Quick note: pIC50 means taking -log10 of the concentration in moles per liter.

Task: Find the recorded pIC50 belonging to COc1cc(F)ccc1-c1cc(Nc2cc(CS(C)(=N)=O)cc(C)n2)ncn1 (racemic) [Example 7] and report it.
Result: 6.67

Task: Proceed to COc1cc(F)ccc1-c1cc(Nc2cc(CS(C)(=N)=O)cc(C)n2)ncn1 (single isomer, unassigned) [Example 8]
Result: 6.55

Task: Proceed to COc1cc(F)ccc1-c1cc(Nc2cc(CS(C)(=N)=O)cc(Cl)n2)ncn1 (single isomer, unassigned) [Example 5]
Result: 6.91

Task: Proceed to COc1cc(F)ccc1-c1cc(Nc2cc(CS(C)(=N)=O)cc(C(F)(F)F)n2)ncn1 (racemic) [Example 10]
Result: 7.00

Task: Proceed to COc1cc(F)ccc1-c1cc(Nc2cc(CS(C)(=N)=O)ccn2)ncn1 (racemic) [Example 1]
Result: 6.31

Task: Proceed to COc1cc(F)ccc1-c1cc(Nc2cc(CS(C)(=N)=O)cc(Cl)n2)ncn1 (racemic) [Example 4]
Result: 6.67
